test system: OVCAR-3; test: Anticancer activity against human OVCAR-3 cells assessed as cell growth inhibition measured after 48 hrs by sulforhodamine B assay; type: functional; settings: Homo sapiens, OVCAR-3, 48 h
Property Name: GI50 (µM)
Report the figure in µM without appending any unit label.

Known GI50 results, listed for orientation:
Cc1ccc(-c2c(CNC(C)(C)C)c(C(=O)O)nn2-c2ccccc2)cc1: 283
CC(C)(C)NCc1c(C(=O)O)nn(-c2ccc(Cl)cc2)c1-c1ccccc1: 652
COc1ccc(-c2c(CNC(C)(C)C)c(C(=O)O)nn2-c2ccc(Cl)cc2)cc1: 121

Shift focus to the following entry.
Returns the measured GI50 for the input compound. Input: `CC(C)(C)NCc1c(C(=O)O)nn(-c2ccc(Cl)cc2)c1-c1ccc([N+](=O)[O-])cc1`
162
